protocol-notes: Cytotoxicity against human HepG2 cells assessed as reduction in cell viability at 10 uM incubated for 48 hrs by CCK-8 assay
condition-description: hepg2
endpoint-name: cytotoxicity at 48 h, 10 µM

CCCCCN(CCCCC)Cc1cc(C(=O)O)ccc1NC(=O)c1cc2cc(F)cc(NC)c2[nH]c1=O: 8.11%
CNc1cc(F)cc2cc(C(=O)Nc3ccc(CO)cc3CN(CCO)C3CCCCC3)c(=O)[nH]c12: -15.3%

====

Tested on: Staphylococcus aureus
protocol-notes: Antibacterial activity against Staphylococcus aureus ATCC 29213 by CLSI method
Format: functional
MIC values by entry
endpoint-name: MIC (µg/mL)

CNc1cc(F)cc2c(NCCN3CCOCC3)c(C(=O)Nc3ccc(C(=O)O)cc3)c(=O)[nH]c12.O=CO: 32
CNc1cc(F)cc2cc(C(=O)Nc3ccc(CO)cc3CN(CCO)C3CCCCC3)c(=O)[nH]c12: 1
CNc1cc(F)cc2cc(C(=O)Nc3ccc(C(=O)N(C)CCN4CCOCC4)cc3)c(=O)[nH]c12: 16

====

target-or-system: DNA gyrase (Escherichia coli, UniProt P0AES4+P0AES6)
protocol-notes: Inhibition of Escherichia coli DNA gyrase by measuring supercoiling activity incubated for 60 mins by fluorescence based assay
pIC50: −log10 of the molar value.
Classification field: label 1 = pIC50 at or over 9; label 0 = pIC50 under 9.

CNc1cc(F)cc2c(N[C@H]3C[C@@H](N)C3)c(C(=O)Nc3ccc(C(=O)O)cc3)c(=O)[nH]c12.O=CO: label 0
CNCCNc1c(C(=O)Nc2ccc(C(=O)O)cc2)c(=O)[nH]c2c(NC)cc(F)cc12.O=CO: label 0
CNc1cc(F)cc2cc(C(=O)Nc3ccc(C(=O)O)cc3CN(CCN)C3CCCCC3)c(=O)[nH]c12.O=C(O)C(F)(F)F: label 0
CNc1cc(F)cc2cc(C(=O)Nc3ccc(C(=O)O)cc3)c(=O)[nH]c12: label 1
CNc1cc(F)cc2cc(C(=O)Nc3ccc(C(=O)NS(=O)(=O)N(C)C)cc3)c(=O)[nH]c12: label 1

====

Test system: Porphyromonas gingivalis
protocol-notes: Antibacterial activity against Porphyromonas gingivalis JCM8525 by CLSI method
Assay type: functional
endpoint-name: MIC (µg/mL)

CCCCCN(CCCCC)Cc1cc(C(=O)O)ccc1NC(=O)c1cc2cc(F)cc(NC)c2[nH]c1=O: 0.12
CNc1cc(F)cc2c(O)c(C(=O)Nc3ccc(C(=O)O)cc3)c(=O)[nH]c12: 0.25
CNc1cc(F)cc2cc(C(=O)Nc3ccc(C(=O)O)cc3CN(CCO)C3CCCCC3)c(=O)[nH]c12.Cl: 0.12
CNc1cc(F)cc2cc(C(=O)Nc3ccc(CO)cc3CN(CCO)C3CCCCC3)c(=O)[nH]c12: 4

====

Tested on: Escherichia coli
protocol-notes: Antibacterial activity against Escherichia coli ATCC 25922 in presence of PAbetaN by CLSI method
Assay type: functional
endpoint-name: MIC

CNc1cc(F)cc2cc(C(=O)Nc3ccc(C(=O)O)cc3CN(CCO)C3CCCCC3)c(=O)[nH]c12.Cl: ≤ 0.03 µg/mL
CNc1cc(F)cc2cc(C(=O)Nc3ccc(C(=O)NS(=O)(=O)N(C)C)cc3)c(=O)[nH]c12: ≤ 0.015 µg/mL
CCCCCN(C)Cc1cc(C(=O)O)ccc1NC(=O)c1cc2cc(F)cc(NC)c2[nH]c1=O: ≤ 0.03 µg/mL
CNc1cc(F)cc2cc(C(=O)Nc3ccc(C(=O)O)cc3CN3CCCCC3)c(=O)[nH]c12: ≤ 0.03 µg/mL
CNc1cc(F)cc2cc(C(=O)Nc3ccc(C(=O)O)cc3CN(C)C3CCCCC3)c(=O)[nH]c12.Cl: ≤ 0.03 µg/mL
CNCCCc1c(C(=O)Nc2ccc(C(=O)O)cc2)c(=O)[nH]c2c(NC)cc(F)cc12.O=C(O)C(F)(F)F: > 32 µg/mL
CNCCc1c(C(=O)Nc2ccc(C(=O)O)cc2)c(=O)[nH]c2c(NC)cc(F)cc12.O=C(O)C(F)(F)F: > 8 µg/mL
CNc1cc(F)cc2cc(C(=O)Nc3ccc(C(=O)O)cc3CN(C)C3CC3)c(=O)[nH]c12: ≤ 0.03 µg/mL
CNc1cc(F)cc2c(O)c(C(=O)Nc3ccc(C(=O)O)cc3CN3CCCCC3)c(=O)[nH]c12.O=C(O)C(F)(F)F: ≤ 0.015 µg/mL
CNc1cc(F)cc2cc(C(=O)Nc3ccc(C(=O)NCCN)cc3)c(=O)[nH]c12.Cl: > 8 µg/mL
CNc1cc(F)cc2cc(C(=O)Nc3ccc(CO)cc3CN(CCO)C3CCCCC3)c(=O)[nH]c12: ≤ 0.03 µg/mL
CNc1cccc2cc(C(=O)Nc3ccc(C(=O)O)cc3)c(=O)[nH]c12: < 0.03 µg/mL
CNc1cc(F)cc2cc(C(=O)Nc3cnc(C(=O)O)nc3)c(=O)[nH]c12: > 16 µg/mL
CNc1cc(F)cc2c(O)c(C(=O)Nc3ccc(C(=O)NS(=O)(=O)N(C)C)cc3)c(=O)[nH]c12: ≤ 0.015 µg/mL
CNc1cc(F)cc2cc(C(=O)Nc3ccc(C(N)=O)cc3CN(C)C3CCCCC3)c(=O)[nH]c12: ≤ 0.03 µg/mL
CCCCCN(CCCCC)Cc1cc(C(=O)O)ccc1NC(=O)c1cc2cc(F)cc(NC)c2[nH]c1=O: ≤ 0.03 µg/mL
